Data provenance is patent US7071190B2.

- System: A549 cells
- MEASUREMENT_PROTOCOL: Bromodeoxyuridine (BrdU) proliferation assay
- Assay type: cell-based, human
- MEASUREMENT_CONDITIONS: Homo sapiens, A549, 48 h, BrdU ELISA 48 hours after addition of compound; tested 0.03-10 uM; cell line not given (A549 method; SW-480 and MDA-MB-231 also used); read-out: Assay Result (IC50μM)
MEASURED_QUANTITY: IC50 (µM)
Kindly provide the numeric value in µM only, without the unit symbol.

Worked cases, answers included:
>>> reported_value("CCCNC(=S)NNc1ncnc2cc(-c3ccccc3)sc12")
0.02
>>> reported_value("S=C(NNc1ncnc2cc(-c3ccccc3)sc12)NC1CCCC1")
0.071
>>> reported_value("S=C(NNc1ncnc2cc(-c3ccccc3)sc12)Nc1ccccc1")
0.664

Asked: Returns the measured IC50 for the input molecule. Input: Cc1ccc(-c2cc3ncnc(NNC(=S)Nc4ccccc4)c3s2)cc1C
Given back: 0.622

Asked: Now consider Cc1ccc(-c2cc3ncnc(NNC(=S)Nc4ccccc4)c3s2)cc1 and answer again.
Given back: 0.369

Asked: Now consider Cc1cccc(-c2cc3ncnc(NNC(=S)NCc4ccco4)c3s2)c1 and answer again.
Given back: 0.127

Asked: Now consider CC(C)NC(=S)NNc1ncnc2cc(-c3ccccc3)sc12 and answer again.
Given back: 0.024

Asked: Now consider Cc1cccc(-c2cc3ncnc(NNC(=S)NC(C)C)c3s2)c1 and answer again.
Given back: 0.026

Asked: Now consider Cc1ccc(-c2cc3ncnc(NNC(=S)NC4CC4)c3s2)cc1 and answer again.
Given back: 0.121

Asked: Now consider COCCNC(=S)NNc1ncnc2cc(-c3ccc(OC)cc3)sc12 and answer again.
Given back: 1.19

Asked: Now consider CCOC(=O)c1ccccc1NC(=S)NNc1ncnc2cc(-c3ccccc3)sc12 and answer again.
Given back: 1.33

Asked: Now consider CCCNC(=S)NNc1ncnc2cc(-c3cccc(C)c3)sc12 and answer again.
Given back: 0.044

Asked: Now consider S=C(NCC(c1ccccc1)c1ccccc1)NNc1ncnc2cc(-c3ccccc3)sc12 and answer again.
Given back: 8.15

Asked: Now consider Cc1cccc(-c2cc3ncnc(NNC(=S)NCC4CCCO4)c3s2)c1 (stereo not shown) and answer again.
Given back: 0.719

Asked: Now consider Cc1cc(C)cc(-c2cc3ncnc(NNC(=S)NC4CC4)c3s2)c1 and answer again.
Given back: 0.016

Asked: Now consider Cc1ccc(-c2cc3ncnc(NNC(N)=S)c3s2)cc1 and answer again.
Given back: 1.97

Asked: Now consider COCCCNC(=S)NNc1ncnc2cc(-c3cc(C)cc(C)c3)sc12 and answer again.
Given back: 0.029

Asked: Now consider COCCNC(=S)NNc1ncnc2cc(-c3ccccc3)sc12 and answer again.
Given back: 0.202

Asked: Now consider S=C(NC[C@@H]1CCCO1)NNc1ncnc2cc(-c3ccccc3)sc12 and answer again.
Given back: 0.134

====

- Test system: A549 cells
- MEASUREMENT_PROTOCOL: Bromodeoxyuridine (BrdU) proliferation assay
- Format: cell-based, human
- MEASUREMENT_CONDITIONS: Homo sapiens, A549, 48 h, BrdU ELISA 48 hours after addition of compound; tested 0.03-10 uM; cell line not given (A549 method; SW-480 and MDA-MB-231 also used); read-out: Assay Result (IC50μM)
pIC50: −log10 of the molar value.
Returns one of rule met or rule not met; rule met when pIC50 is >= 6.

>>> label_class("S=C(NNc1ncnc2cc(-c3cccc(Cl)c3)sc12)Nc1ccccc1")
"rule not met"

Asked: Hi team, for COc1ccccc1NC(=S)NNc1ncnc2cc(-c3ccccc3)sc12 , is the recorded pIC50 at or above 6?
Given back: rule met

Asked: Now consider Cc1cccc(-c2cc3ncnc(NNC(=S)NC4CC4)c3s2)c1 and answer again.
Given back: rule met

Asked: Now consider S=C(NNc1ncnc2cc(-c3ccccc3)sc12)Nc1cccnc1 and answer again.
Given back: rule not met

Asked: Now consider COCCCNC(=S)NNc1ncnc2cc(-c3cccc(C)c3)sc12 and answer again.
Given back: rule met

Asked: Now consider CNC(=S)NNc1ncnc2cc(-c3ccccc3)sc12 and answer again.
Given back: rule not met

Asked: Now consider Cc1cccc(-c2cc3ncnc(NNC(=S)NC4CCCC4)c3s2)c1 and answer again.
Given back: rule met
